Test protocol: Acute oral toxicity in Swiss mice (Litchfield and Wilcoxon)
Format: in vivo
Recorded conditions: in vivo, mouse
Measured property: LD50 (mg/kg)
A number alone suffices; assume mg/kg.

1. O=C(O)C1CSCN1 (centres unmarked) [TCA, thiazolidine-4-carboxylic acid] : 400

# next compound below
Exercise: State its LD50: C1N2CN3CN1CN(C2)C3 [EMTA, hexamethylenetetramine]
Key: 1500

Values compiled from patent US4469691A.
